Test: Fraction unbound in mouse plasma at 0.2 to 0.25 mg/kg, iv via cassette dosing measured up to 24 hrs post dose by LC/MS/MS analysis
Type: ADME, organism-based
endpoint-label: fraction unbound at 24 h
The response must contain the number and no unit.

### Prompt Form field: reported fraction unbound at 24 h of COc1cc(C(=O)Nc2cc(OC(F)(F)F)ccc2-n2cncn2)ccc1OCC1CC1
### Response 0.026

* * *

Experiment: Drug level in C57Bl/6J mouse cerebrospinal fluid at 3 mg/kg, ip measured at 1 hr post dose by LC/MS/MS analysis
Type: ADME, organism-based
Details: read-out: Drug uptake
endpoint-label: concentration at 1 h (nM)
Kindly provide the numeric value in nM only, without the unit symbol.

### Prompt Form field: reported concentration at 1 h of COc1cc(C(=O)Nc2cc(OC(F)(F)F)ccc2-n2cncn2)ccc1OCC1CC1
### Response 883
